Value source: paper PMC6703927

# Measured On: WT-DAT (Homo sapiens, UniProt Q01959)
# Sequence (Q01959 whole entry): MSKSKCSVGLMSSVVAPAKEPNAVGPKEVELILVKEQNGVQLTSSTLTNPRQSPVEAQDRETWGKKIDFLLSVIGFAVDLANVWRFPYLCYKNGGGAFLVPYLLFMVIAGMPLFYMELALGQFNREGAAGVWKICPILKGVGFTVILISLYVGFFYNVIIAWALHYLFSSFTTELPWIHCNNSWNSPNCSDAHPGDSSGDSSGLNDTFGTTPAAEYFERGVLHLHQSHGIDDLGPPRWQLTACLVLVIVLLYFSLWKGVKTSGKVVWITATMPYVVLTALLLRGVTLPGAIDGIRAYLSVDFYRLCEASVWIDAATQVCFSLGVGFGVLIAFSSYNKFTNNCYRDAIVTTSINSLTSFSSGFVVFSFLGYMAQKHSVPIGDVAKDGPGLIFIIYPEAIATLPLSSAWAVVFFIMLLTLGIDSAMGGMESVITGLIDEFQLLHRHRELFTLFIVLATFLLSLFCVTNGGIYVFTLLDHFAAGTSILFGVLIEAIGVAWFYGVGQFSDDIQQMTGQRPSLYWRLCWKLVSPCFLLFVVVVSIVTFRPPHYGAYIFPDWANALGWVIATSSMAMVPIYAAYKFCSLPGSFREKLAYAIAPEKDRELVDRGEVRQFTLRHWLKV
# Method: DA uptake inhibition assay, transfected COS-7 cells
# Test Conditions: read-out: IC50 DA uptake inhibition; WT-DAT transfected COS-7 cells
Test Readout: pIC50
// scale note: pIC50 = -log10(conc_M); give the bare number

Per the records, this compound ( "CCc1ccc2[nH]c3nc(SCCNS(=O)(=O)c4ccc(NC(C)=O)cc4)nnc3c2c1" ) has pIC50 equal to 5.42
